experiment: CREB reporter modulators under forskolin, primary screen, cell-based, PC12, CRE-LacZ reporter, forskolin-stimulated (AID 1146); conditions: luminescence, 4.5 h, higher = more signal, called active from +8 up or from −8 down;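 note: PC12 cells with 6xCRE LacZ reporter stimulated by forskolin 10 µM; beta-galactosidase reporter signal reflecting CREB driven transcription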
z-score values by entry
Give your answer as a number; write no unit.

# compound, measured_result
records = [
    ("C[C@@H]1CC[C@H]2C(=O)N3[C@@H](CC[C@@H](C)[C@@H]3c3ccc(Br)cc3)C(=O)N2[C@H]1c1ccc(Br)cc1", 0.929),
    ("CCc1cc2c(nc1CC)CCN(CCC(C)=NO[C@@H]1O[C@H](COC(C)=O)[C@@H](OC(C)=O)[C@H](OC(C)=O)[C@H]1OC(C)=O)C2", -0.26),
    ("COC(=O)[C@H](C)NC(=O)CCC1CC(OC(=O)NCCc2ccc(F)cc2)CC2(CCCC(COC(=O)NCCOc3ccccc3)O2)O1 (some centres undefined)", -0.501),
]

Kindly review the next compound as well.
Input C[C@@H]1CC[C@H]2C(=O)O[C@@H](CN=[N+]=[N-])CN2[C@H]1c1ccc(Br)cc1 . Output z-score: -0.833

Value source: PubChem BioAssay
